# assayed-system: Neuropeptide FF receptor 1 (Homo sapiens, UniProt Q9GZQ6)
# Sequence (Q9GZQ6 whole entry): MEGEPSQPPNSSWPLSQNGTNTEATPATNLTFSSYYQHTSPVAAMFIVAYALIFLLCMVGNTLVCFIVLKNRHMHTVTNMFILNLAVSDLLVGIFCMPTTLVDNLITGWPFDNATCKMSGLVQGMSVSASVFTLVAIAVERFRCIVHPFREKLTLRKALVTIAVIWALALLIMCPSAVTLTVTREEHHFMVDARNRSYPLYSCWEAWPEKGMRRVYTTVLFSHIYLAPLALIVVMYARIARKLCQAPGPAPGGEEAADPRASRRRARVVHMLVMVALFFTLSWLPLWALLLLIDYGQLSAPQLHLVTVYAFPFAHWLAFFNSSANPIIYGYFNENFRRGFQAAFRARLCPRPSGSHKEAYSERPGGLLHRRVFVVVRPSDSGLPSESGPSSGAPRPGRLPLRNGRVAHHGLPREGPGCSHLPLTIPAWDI
# experiment-notes: Agonist activity at NPFFR1 (unknown origin) expressed in HEK293-A cells assessed as inhibition of forskolin-stimulated cAMP accumulation incubated for 30 mins by competition PKA binding assay relative to control
# Type: functional, cell-based
# test-conditions: filed as agonist
recorded-metric: Emax (%)
// note: answer is a bare numeric in %

Query: Return value of Emax for input "N=C(N)NCCC[C@H](NC(=O)[C@H](CCC(N)=O)NC(=O)[C@@H]1CCCN1C(=O)[C@@H]1CSSC[C@@H](NC(=O)[C@@H](N)Cc2ccc(O)cc2)C(=O)NCC(=O)N[C@@H](Cc2ccccc2)C(=O)N1)C(=O)N[C@@H](Cc1ccccc1)C(N)=O" , no commentary.
Result: 75.9

Query: Indicate its recorded Emax; the molecule in question is "N=C(N)NCCC[C@H](NC(=O)[C@H](CCC(N)=O)NC(=O)[C@@H]1CCCN1C(=O)[C@H](CS)NC(=O)[C@H](Cc1ccccc1)NC(=O)CNC(=O)[C@H](CS)NC(=O)[C@@H](N)Cc1ccc(O)cc1)C(=O)N[C@@H](Cc1ccccc1)C(N)=O"
Result: 79.7

Query: Give Emax for the following molecule: "N=C(N)NCCC[C@H](NC(=O)[C@H](CCC(N)=O)NC(=O)[C@@H]1CCCN1C(=O)[C@H]1CSSC[C@H](NC(=O)[C@@H](N)Cc2ccc(O)cc2)C(=O)NCC(=O)N[C@@H](Cc2ccccc2)C(=O)N1)C(=O)N[C@@H](Cc1ccccc1)C(N)=O"
Result: 82.8

Query: Please report Emax for the following molecule: "N=C(N)NCCC[C@H](NC(=O)[C@H](CCC(N)=O)NC(=O)[C@@H]1CCCN1C(=O)[C@@H](CS)NC(=O)[C@H](Cc1ccccc1)NC(=O)CNC(=O)[C@H](CS)NC(=O)[C@@H](N)Cc1ccc(O)cc1)C(=O)N[C@@H](Cc1ccccc1)C(N)=O"
Result: 81.8

###

# assayed-system: Delta-type opioid receptor (Homo sapiens, UniProt P41143)
# Sequence (P41143 whole entry): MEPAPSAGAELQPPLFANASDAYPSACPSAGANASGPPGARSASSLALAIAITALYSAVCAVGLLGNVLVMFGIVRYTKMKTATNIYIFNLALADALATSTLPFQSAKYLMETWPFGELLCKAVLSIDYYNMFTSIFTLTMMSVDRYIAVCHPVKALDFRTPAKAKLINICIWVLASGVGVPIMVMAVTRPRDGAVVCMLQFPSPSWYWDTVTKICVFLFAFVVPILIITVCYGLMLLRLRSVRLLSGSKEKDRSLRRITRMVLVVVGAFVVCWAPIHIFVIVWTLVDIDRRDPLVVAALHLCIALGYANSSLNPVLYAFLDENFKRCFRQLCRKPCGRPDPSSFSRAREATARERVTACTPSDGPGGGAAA
# experiment-notes: Agonist activity at delta opioid receptor (unknown origin) expressed in HEK293-A cells assessed as inhibition of forskolin-stimulated cAMP accumulation incubated for 30 mins by competition PKA binding assay relative to control
# Assay type: functional, cell-based
# test-conditions: filed as agonist
For each record, write down the corresponding Emax.
Answer in %, number only, no unit symbol.

Query: Look up Emax of "N=C(N)NCCC[C@H](NC(=O)[C@H](CCC(N)=O)NC(=O)[C@@H]1CCCN1C(=O)[C@@H]1CSSC[C@H](NC(=O)[C@@H](N)Cc2ccc(O)cc2)C(=O)NCC(=O)N[C@@H](Cc2ccccc2)C(=O)N1)C(=O)N[C@@H](Cc1ccccc1)C(N)=O" and report it.
Result: 63.6

Query: Given the compound "N=C(N)NCCC[C@H](NC(=O)[C@H](CCC(N)=O)NC(=O)[C@@H]1CCCN1C(=O)[C@@H]1CSSC[C@@H](NC(=O)[C@@H](N)Cc2ccc(O)cc2)C(=O)NCC(=O)N[C@@H](Cc2ccccc2)C(=O)N1)C(=O)N[C@@H](Cc1ccccc1)C(N)=O" , write its reported Emax.
Result: 65.1

Query: Query Emax for "N=C(N)NCCC[C@H](NC(=O)[C@H](CCC(N)=O)NC(=O)[C@@H]1CCCN1C(=O)[C@@H](CS)NC(=O)[C@H](Cc1ccccc1)NC(=O)CNC(=O)[C@H](CS)NC(=O)[C@@H](N)Cc1ccc(O)cc1)C(=O)N[C@@H](Cc1ccccc1)C(N)=O"
Result: 50.4

Query: Supply measured Emax of "N=C(N)NCCC[C@H](NC(=O)[C@H](CCC(N)=O)NC(=O)[C@@H]1CCCN1C(=O)[C@H](CS)NC(=O)[C@H](Cc1ccccc1)NC(=O)CNC(=O)[C@@H](CS)NC(=O)[C@@H](N)Cc1ccc(O)cc1)C(=O)N[C@@H](Cc1ccccc1)C(N)=O" in your reply.
Result: 46.1

###

Can you tell me pEC50 for the items I'm about to list?
# assayed-system: Neuropeptide FF receptor 1 (Homo sapiens, UniProt Q9GZQ6)
# experiment-notes: Agonist activity at NPFFR1 (unknown origin) expressed in HEK293-A cells assessed as inhibition of forskolin-stimulated cAMP accumulation incubated for 30 mins by competition PKA binding assay
Please report pEC50 as the negative decimal logarithm of the molar concentration, giving only the number.

Query: Please list pEC50 recorded for the compound "N=C(N)NCCC[C@H](NC(=O)[C@H](CCC(N)=O)NC(=O)[C@@H]1CCCN1C(=O)[C@@H]1CSSC[C@H](NC(=O)[C@@H](N)Cc2ccc(O)cc2)C(=O)NCC(=O)N[C@@H](Cc2ccccc2)C(=O)N1)C(=O)N[C@@H](Cc1ccccc1)C(N)=O"
Result: 7.49

Query: Return the recorded pEC50 value; entry: "N=C(N)NCCC[C@H](NC(=O)[C@H](CCC(N)=O)NC(=O)[C@@H]1CCCN1C(=O)[C@H]1CSSC[C@H](NC(=O)[C@@H](N)Cc2ccc(O)cc2)C(=O)NCC(=O)N[C@@H](Cc2ccccc2)C(=O)N1)C(=O)N[C@@H](Cc1ccccc1)C(N)=O"
Result: 6.45

Query: Answer with the recorded pEC50 of "N=C(N)NCCC[C@H](NC(=O)[C@H](CCC(N)=O)NC(=O)[C@@H]1CCCN1C(=O)[C@@H]1CSSC[C@@H](NC(=O)[C@@H](N)Cc2ccc(O)cc2)C(=O)NCC(=O)N[C@@H](Cc2ccccc2)C(=O)N1)C(=O)N[C@@H](Cc1ccccc1)C(N)=O" only.
Result: 8.12

Query: Using known records, supply pEC50 for "N=C(N)NCCC[C@H](NC(=O)[C@H](CCC(N)=O)NC(=O)[C@@H]1CCCN1C(=O)[C@@H](CS)NC(=O)[C@H](Cc1ccccc1)NC(=O)CNC(=O)[C@H](CS)NC(=O)[C@@H](N)Cc1ccc(O)cc1)C(=O)N[C@@H](Cc1ccccc1)C(N)=O"
Result: 6.67

Query: # return recorded pEC50 for input "N=C(N)NCCC[C@H](NC(=O)[C@H](CCC(N)=O)NC(=O)[C@@H]1CCCN1C(=O)[C@H](CS)NC(=O)[C@H](Cc1ccccc1)NC(=O)CNC(=O)[C@@H](CS)NC(=O)[C@@H](N)Cc1ccc(O)cc1)C(=O)N[C@@H](Cc1ccccc1)C(N)=O"
Result: 7.76

Query: Output pEC50 of "N=C(N)NCCC[C@H](NC(=O)[C@H](CCC(N)=O)NC(=O)[C@@H]1CCCN1C(=O)[C@H]1CSSC[C@@H](NC(=O)[C@@H](N)Cc2ccc(O)cc2)C(=O)NCC(=O)N[C@@H](Cc2ccccc2)C(=O)N1)C(=O)N[C@@H](Cc1ccccc1)C(N)=O"
Result: 6.44

Query: Give a short answer stating reported pEC50 for "N=C(N)NCCC[C@H](NC(=O)[C@H](CCC(N)=O)NC(=O)[C@@H]1CCCN1C(=O)[C@@H](CS)NC(=O)[C@H](Cc1ccccc1)NC(=O)CNC(=O)[C@@H](CS)NC(=O)[C@@H](N)Cc1ccc(O)cc1)C(=O)N[C@@H](Cc1ccccc1)C(N)=O" .
Result: 6.10

Query: Supply recorded pEC50 for "N=C(N)NCCC[C@H](NC(=O)[C@H](CCC(N)=O)NC(=O)[C@@H]1CCCN1C(=O)[C@H](CS)NC(=O)[C@H](Cc1ccccc1)NC(=O)CNC(=O)[C@H](CS)NC(=O)[C@@H](N)Cc1ccc(O)cc1)C(=O)N[C@@H](Cc1ccccc1)C(N)=O" here.
Result: 7.60

###

# assayed-system: Neuropeptide FF receptor 2 (Homo sapiens, UniProt Q9Y5X5)
# Sequence (Q9Y5X5 whole entry): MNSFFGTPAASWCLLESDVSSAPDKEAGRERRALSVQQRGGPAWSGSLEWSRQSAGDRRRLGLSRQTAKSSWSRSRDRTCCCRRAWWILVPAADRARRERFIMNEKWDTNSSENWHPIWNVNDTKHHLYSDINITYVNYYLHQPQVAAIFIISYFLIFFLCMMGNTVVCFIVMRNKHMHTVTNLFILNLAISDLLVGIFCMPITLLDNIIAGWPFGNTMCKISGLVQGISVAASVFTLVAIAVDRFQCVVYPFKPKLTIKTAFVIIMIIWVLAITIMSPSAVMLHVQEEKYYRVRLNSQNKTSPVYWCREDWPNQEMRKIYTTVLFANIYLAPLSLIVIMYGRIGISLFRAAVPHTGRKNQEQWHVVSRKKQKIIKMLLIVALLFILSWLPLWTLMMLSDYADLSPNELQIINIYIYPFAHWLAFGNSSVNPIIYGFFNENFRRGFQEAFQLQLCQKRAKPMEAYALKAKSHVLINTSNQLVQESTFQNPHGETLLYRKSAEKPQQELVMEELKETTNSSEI
# experiment-notes: Agonist activity at NPFFR2 (unknown origin) expressed in HEK293-A cells assessed as inhibition of forskolin-stimulated cAMP accumulation incubated for 30 mins by competition PKA binding assay
Answer each item with its documented EC50.
Give just the number in nM; leave the unit off.

Query: Name the recorded EC50 of the compound listed here: "N=C(N)NCCC[C@H](NC(=O)[C@H](CCC(N)=O)NC(=O)[C@@H]1CCCN1C(=O)[C@H]1CSSC[C@H](NC(=O)[C@@H](N)Cc2ccc(O)cc2)C(=O)NCC(=O)N[C@@H](Cc2ccccc2)C(=O)N1)C(=O)N[C@@H](Cc1ccccc1)C(N)=O"
Result: 168

Query: Give the reported value of EC50 for this record: "N=C(N)NCCC[C@H](NC(=O)[C@H](CCC(N)=O)NC(=O)[C@@H]1CCCN1C(=O)[C@@H]1CSSC[C@@H](NC(=O)[C@@H](N)Cc2ccc(O)cc2)C(=O)NCC(=O)N[C@@H](Cc2ccccc2)C(=O)N1)C(=O)N[C@@H](Cc1ccccc1)C(N)=O"
Result: 19.2

Query: Query EC50 for "N=C(N)NCCC[C@H](NC(=O)[C@H](CCC(N)=O)NC(=O)[C@@H]1CCCN1C(=O)[C@H](CS)NC(=O)[C@H](Cc1ccccc1)NC(=O)CNC(=O)[C@@H](CS)NC(=O)[C@@H](N)Cc1ccc(O)cc1)C(=O)N[C@@H](Cc1ccccc1)C(N)=O"
Result: 532

Query: Note EC50 for the compound shown: "N=C(N)NCCC[C@H](NC(=O)[C@H](CCC(N)=O)NC(=O)[C@@H]1CCCN1C(=O)[C@H](CS)NC(=O)[C@H](Cc1ccccc1)NC(=O)CNC(=O)[C@H](CS)NC(=O)[C@@H](N)Cc1ccc(O)cc1)C(=O)N[C@@H](Cc1ccccc1)C(N)=O"
Result: 752
